Would you kindly list IC50 for each of these compounds?
- measured target: IDO1 (Homo sapiens)
- Construct: endogenous in cells
- method summary: IDO1 cell-based assay (HeLa cells, IFNgamma-induced, N-formylkynurenine/L-tryptophan by RFMS)
- assay setup: 10 ng/mL IFNgamma, 24 hours

get_value(item= CCC(NC(=O)c1ccc(Cl)cc1)[C@H]1[C@@H]2C[C@@H](NC(=O)c3ncccc3F)C[C@@H]21 (stereo partly shown) , readout=IC50) returns < 0.2 µM

Given item CCC(NC(=O)c1ccc(Cl)cc1)[C@H]1[C@@H]2C[C@H](Oc3ccc4nccc(Cl)c4c3)C[C@@H]21 (stereo partly shown) , the value recorded as its IC50 is < 0.2 µM

Lab note: CCC(NC(=O)c1ccc(OC)nc1)C1C2CC(Oc3ncnc4ccc(F)cc34)CC21 (stereo not shown) gave IC50 of < 0.2 µM

The compound identified as CCC(NC(=O)c1ccc(Cl)cc1)[C@H]1[C@@H]2C[C@@H](n3ccc4cc(F)ccc43)C[C@@H]21 (stereo partly shown) registered its IC50 at < 0.2 µM

// IC50 value for CCC(NC(=O)c1ccc(Cl)cc1)[C@H]1[C@@H]2C[C@@H](Oc3ncccc3C)C[C@@H]21 (stereo partly shown) : < 0.2 µM

The reported value for CCC(NC(=O)c1ccc(Cl)cc1)[C@H]1[C@@H]2C[C@@H](n3cnc4ccc(F)cc4c3=O)C[C@@H]21 (stereo partly shown) in terms of IC50 is < 0.2 µM

Quick note, IC50 for CCC(NC(=O)c1ccc(Cl)cc1)[C@H]1[C@@H]2C=CC[C@@H]21 (stereo partly shown) landed at 0.2 to 2 µM

----------
- measured target: IDO1 (Homo sapiens, UniProt P14902)
- Construct: endogenous in cells
- Sequence (P14902 whole entry): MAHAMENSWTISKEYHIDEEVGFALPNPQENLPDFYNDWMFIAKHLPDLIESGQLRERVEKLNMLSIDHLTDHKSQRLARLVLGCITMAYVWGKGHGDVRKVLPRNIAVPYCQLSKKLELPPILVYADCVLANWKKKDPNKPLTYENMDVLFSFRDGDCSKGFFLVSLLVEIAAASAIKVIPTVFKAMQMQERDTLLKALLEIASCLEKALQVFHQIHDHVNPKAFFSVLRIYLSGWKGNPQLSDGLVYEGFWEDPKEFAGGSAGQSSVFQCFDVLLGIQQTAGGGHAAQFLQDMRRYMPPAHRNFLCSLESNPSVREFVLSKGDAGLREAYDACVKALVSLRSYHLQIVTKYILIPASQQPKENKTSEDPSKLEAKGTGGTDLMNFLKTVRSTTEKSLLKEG
- method summary: IDO1 cell-based assay (HeLa cells, IFNgamma-induced, N-formylkynurenine/L-tryptophan by RFMS)
- assay setup: 10 ng/mL IFNgamma, 24 hours
readout label: IC50

In plain terms, CCC(NC(=O)c1ccc(Cl)cc1)[C@H]1[C@@H]2C[C@@H](Nc3c([N+](=O)[O-])ccc(F)c3F)C[C@@H]21 (some centres unmarked) has a documented IC50 of < 0.2 µM

Recorded IC50 (molecule COc1ccc(C(=O)NC[C@@H]2[C@H]3C[C@H](n4cnc5cc(F)c(F)cc54)C[C@@H]23)cn1 ): 0.2 to 2 µM

Looking up CC(C)(NC(=O)c1ccc(C#N)cc1)C1[C@H]2CC(Oc3cnnc4ccccc34)C[C@@H]12 (some centres unmarked) , I see its IC50 listed as < 0.2 µM

Looking up CCC(NC(=O)c1ccc(Cl)cc1)[C@H]1[C@@H]2C[C@@H](n3nncc3CO)C[C@@H]21 (some centres unmarked) , I found its IC50 recorded as 0.2 to 2 µM

get_value(item= CC[C@@H](NC(=O)c1ccc(Cl)cc1)[C@H]1[C@@H]2C[C@@H](n3cc(C4CC4)cn3)C[C@@H]21 , readout=IC50) returns < 0.2 µM

Consider CC[C@@H](NC(=O)c1ccc(Cl)cc1)[C@H]1[C@@H]2C[C@@H](n3cc(C(=O)O)cn3)C[C@@H]21 . Its measured IC50 is 0.2 to 2 µM

Record CCC(NC(=O)c1ccc(Cl)cc1)[C@H]1[C@@H]2C[C@@H](n3ncc4cnccc43)C[C@@H]21 (some centres unmarked) . Reported IC50: < 0.2 µM

The reported value for CCC(NC(=O)c1ccc(Cl)cc1)[C@H]1[C@@H]2C[C@@H](n3nnc4ccccc43)C[C@@H]21 (some centres unmarked) in terms of IC50 is < 0.2 µM

For record CC(NC(=O)c1ccc(Cl)cc1)[C@H]1[C@@H]2C[C@@H](Oc3ncnc4cc(F)ccc34)C[C@@H]21 (some centres unmarked) the listed IC50 is < 0.2 µM

Summary for this molecule, CCC(NC(=O)c1ccc(Cl)cc1)[C@H]1[C@@H]2C[C@@H](Oc3ccccc3CN(C)C)C[C@@H]21 (some centres unmarked) : IC50 is 2 to 5 µM

Noted for CCC(NC(=O)c1ccc(Cl)cc1)[C@H]1[C@@H]2C[C@H](n3cc(COCCOC)nn3)C[C@@H]21 (some centres unmarked) : its IC50 reads 0.2 to 2 µM

Sure, the documented IC50 for CCC(NC(=O)c1ccc(Cl)cc1)[C@H]1[C@@H]2C[C@@H](n3nc4ccc(Br)cc4n3)C[C@@H]21 (some centres unmarked) is < 0.2 µM

Value of measured IC50 for the entry CCC(NC(=O)c1ccc(Cl)cc1)[C@H]1[C@@H]2C[C@@H](Nc3ccc(Cl)cc3[N+](=O)[O-])C[C@@H]21 (some centres unmarked) : < 0.2 µM

For CCC(NC(=O)c1ccc(Cl)cc1)[C@H]1[C@@H]2C[C@@H](NS(=O)(=O)C3(C)CC3)C[C@@H]21 (some centres unmarked) the molecule record lists IC50 as 0.2 to 2 µM
